molecular target: NLuc::LmxCLK1 (Leishmania mexicana); test: cell-based; format: cell-based; details: read-out: Target occupancy Average
endpoint: receptor occupancy at 10 µM (%)
Hi! Could you send only the number? It should be in %, unit omitted.

Input: Value lookup for receptor occupancy at 10 µM; key = CS(=O)(=O)c1ccc(-c2cnc(N)c(C(=O)Nc3ccccc3)n2)cc1
Output: -2.9

Input: Value lookup for receptor occupancy at 10 µM; key = O=C1NC(=O)/C(=C/c2ccc3nccc(-c4ccncc4)c3c2)S1
Output: -2.8

Input: Value lookup for receptor occupancy at 10 µM; key = COC[C@H]1OC(=O)c2coc3c2[C@@]1(C)C1=C(C3=O)[C@@H]2CCC(=O)[C@@]2(C)C[C@H]1OC(C)=O
Output: -3.6

Input: Value lookup for receptor occupancy at 10 µM; key = O=C(Nc1nc2cccc(-c3ccc(CN4CCS(=O)(=O)CC4)cc3)n2n1)C1CC1
Output: -15.3

Input: Value lookup for receptor occupancy at 10 µM; key = C=CC(=O)Nc1ccc2ncnc(Nc3ccc(OCc4cccc(F)c4)c(Cl)c3)c2c1
Output: -9.2

Input: Value lookup for receptor occupancy at 10 µM; key = Cc1c(Cn2c(C)nc3c(C(=O)O)cc(N4CCOCC4)cc32)cccc1C(F)(F)F
Output: -2.2

Input: Value lookup for receptor occupancy at 10 µM; key = Cc1ccc2nc(NCCN)c3ncc(C)n3c2c1
Output: -1.1

Input: Value lookup for receptor occupancy at 10 µM; key = COc1ccc(Cl)c(Nc2nc3ccccc3nc2NS(=O)(=O)c2cccc(NC(=O)C(C)(C)N)c2)c1
Output: -5

====

Target: LmxCLK1 (Leishmania mexicana)
Sequence (E9AMP2 1-422): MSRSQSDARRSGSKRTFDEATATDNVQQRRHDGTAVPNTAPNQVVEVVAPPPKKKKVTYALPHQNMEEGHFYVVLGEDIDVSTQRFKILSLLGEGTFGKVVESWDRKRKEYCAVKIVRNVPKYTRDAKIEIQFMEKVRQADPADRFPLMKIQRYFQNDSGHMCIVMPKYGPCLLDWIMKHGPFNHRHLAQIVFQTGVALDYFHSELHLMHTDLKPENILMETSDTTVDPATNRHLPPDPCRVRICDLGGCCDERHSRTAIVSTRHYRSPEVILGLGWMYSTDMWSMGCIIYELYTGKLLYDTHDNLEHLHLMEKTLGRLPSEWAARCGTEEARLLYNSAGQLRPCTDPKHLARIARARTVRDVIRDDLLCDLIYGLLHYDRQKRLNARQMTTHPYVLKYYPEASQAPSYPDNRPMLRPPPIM
Experiment: biochemical
Format: binding
Conditions: DSF, 10 µM compound, 2 µM LmxCLK1, mean of two runs
Provide the recorded ΔTm Average for the entries that follow.
Hi! Could you send only the number? It should be in °C, unit omitted.

Input: Value lookup for ΔTm Average; key = C=CC(=O)Nc1cccc(Nc2nc(Nc3ccc(Oc4ccnc(C(=O)NC)c4)cc3)ncc2F)c1
Output: -0.2

Input: Value lookup for ΔTm Average; key = CCN1CCN(Cc2ccc(-c3cc4c(N[C@H](C)c5ccccc5)ncnc4[nH]3)cc2)CC1
Output: 0.3

Input: Value lookup for ΔTm Average; key = CS(=O)(=O)CCNCc1ccc(-c2ccc3ncnc(Nc4ccc(OCc5cccc(F)c5)c(Cl)c4)c3c2)o1.Cc1ccc(S(=O)(=O)O)cc1.Cc1ccc(S(=O)(=O)O)cc1 [Lapatinib (GW-572016) Ditosylate]
Output: 0.1

====

biological target: UniProt E9AMP2; assay: biochemical; type: binding; conditions: DSF, 10 µM compound, 2 µM LmxCLK1, mean of two runs; read-out: ΔTm Average
Provide the recorded ΔTm at 10 µM for the entries that follow.
Hi! Could you send only the number? It should be in °C, unit omitted.

Input: Value lookup for ΔTm at 10 µM; key = Cc1cc(O)c2c(c1)C(=O)c1cccc(O)c1C2=O
Output: -0.1

Input: Value lookup for ΔTm at 10 µM; key = Cc1cc(NC(=O)c2cccc(NC(=O)/C=C/CN(C)C)c2)ccc1Nc1nccc(-c2cccnc2)n1
Output: -0.1

Input: Value lookup for ΔTm at 10 µM; key = O=C1NC(=O)/C(=C/c2ccc3nccc(-c4ccncc4)c3c2)S1
Output: 0

Input: Value lookup for ΔTm at 10 µM; key = COc1cc(Nc2ncc3c(n2)-c2ccc(Cl)cc2C(c2c(F)cccc2OC)=NC3)ccc1C(=O)O
Output: -0.1

====

molecular target: LmxCLK1 (Leishmania mexicana); experiment: biochemical; type: binding
Think of 0.2 °C as a floor: if ΔTm Run 1 stands on it or above, it is yes (1); beneath it, no (0).

Input: Could you verify whether the entry Cn1cc(-c2cnn3c(N)c(Br)c([C@@H]4CCCNC4)nc23)cn1 [MK-8776 (SCH 900776)] shows ΔTm Run 1 of no less than 0.2 °C?
Output: yes (1)

Input: Could you verify whether the entry OCCn1cc(-c2cnc3nnn(Cc4ccc5ncccc5c4)c3n2)cn1 shows ΔTm Run 1 of no less than 0.2 °C?
Output: no (0)

Input: Could you verify whether the entry NC(=O)c1cnc(N[C@@H]2CCCC[C@@H]2N)nc1Nc1cccc(-n2nccn2)c1 shows ΔTm Run 1 of no less than 0.2 °C?
Output: yes (1)

Input: Could you verify whether the entry CCc1cncnc1N1CCN(Cc2nc3ccc(C(F)(F)F)cc3[nH]2)CC1 shows ΔTm Run 1 of no less than 0.2 °C?
Output: no (0)

Input: Could you verify whether the entry CN(c1ncccc1CNc1nc(Nc2ccc3c(c2)CC(=O)N3)ncc1C(F)(F)F)S(C)(=O)=O shows ΔTm Run 1 of no less than 0.2 °C?
Output: no (0)

Input: Could you verify whether the entry FC(F)(F)c1ccc(/C=C/c2nc(COc3ccc(CCCCn4ccnn4)cc3)co2)cc1 shows ΔTm Run 1 of no less than 0.2 °C?
Output: yes (1)

====

Provide the recorded ΔTm at 10 µM for the entries that follow.
Target: LmxCLK1 (Leishmania mexicana)
Sequence (E9AMP2 1-422): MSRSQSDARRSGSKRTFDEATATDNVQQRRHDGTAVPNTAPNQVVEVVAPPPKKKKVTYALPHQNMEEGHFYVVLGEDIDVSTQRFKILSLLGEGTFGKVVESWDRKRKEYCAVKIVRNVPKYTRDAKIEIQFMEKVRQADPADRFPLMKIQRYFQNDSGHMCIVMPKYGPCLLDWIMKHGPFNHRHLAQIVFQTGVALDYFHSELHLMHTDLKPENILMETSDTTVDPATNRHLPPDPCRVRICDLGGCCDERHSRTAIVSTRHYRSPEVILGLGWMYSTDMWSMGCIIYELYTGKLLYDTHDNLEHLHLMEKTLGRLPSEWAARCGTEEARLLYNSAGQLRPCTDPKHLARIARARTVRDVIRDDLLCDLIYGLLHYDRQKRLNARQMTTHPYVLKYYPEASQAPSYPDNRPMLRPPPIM
Assay: biochemical
Assay type: binding
Details: DSF, 10 µM compound, 2 µM LmxCLK1, Run 1; read-out: ΔTm Run 1
Hi! Could you send only the number? It should be in °C, unit omitted.

Input: Value lookup for ΔTm at 10 µM; key = Cc1cnc(NC(=O)Nc2cc(Br)c(C)cc2OC[C@@H]2CNCCO2)cn1 [LY2603618]
Output: 0

Input: Value lookup for ΔTm at 10 µM; key = Cc1cc(NC(=O)c2cccc(NC(=O)/C=C/CN(C)C)c2)ccc1Nc1nccc(-c2cccnc2)n1 [JNK-IN-8]
Output: 0.2

Input: Value lookup for ΔTm at 10 µM; key = Cn1cnc2c(F)c(Nc3ccc(Br)cc3Cl)c(C(=O)NOCCO)cc21 [Selumetinib (AZD6244)]
Output: 0.3

Input: Value lookup for ΔTm at 10 µM; key = CCCCOc1c(C(=O)c2c(F)cc(C)cc2F)c[nH]c2nncc1-2 [BMS-265246]
Output: -0.1

Input: Value lookup for ΔTm at 10 µM; key = CC(C)(C)c1cc(NC(=O)Nc2ccc(-c3cn4c(n3)sc3cc(OCCN5CCOCC5)ccc34)cc2)no1 [Quizartinib (AC220)]
Output: 0.3

====

biological target: LmxCLK1 (Leishmania mexicana); test: biochemical; type: binding; details: DSF, 10 µM compound, 2 µM LmxCLK1, Run 1; read-out: ΔTm Run 1
Provide the recorded ΔTm at 10 µM for the entries that follow.
Hi! Could you send only the number? It should be in °C, unit omitted.

Input: Value lookup for ΔTm at 10 µM; key = Nc1nc(Nc2ccc(S(N)(=O)=O)cc2)nn1C(=O)c1c(F)cccc1F
Output: 1.4

Input: Value lookup for ΔTm at 10 µM; key = COc1cc(Nc2ncc3c(n2)-c2ccc(Cl)cc2C(c2c(F)cccc2OC)=NC3)ccc1C(=O)O
Output: 0.1

Input: Value lookup for ΔTm at 10 µM; key = Cc1cc(O)c2c(c1)C(=O)c1cccc(O)c1C2=O
Output: 0

Input: Value lookup for ΔTm at 10 µM; key = CNC(=O)c1cccc(-c2ccc3c(N4CCOC[C@@H]4C)nc(N4CCOC[C@@H]4C)nc3n2)c1
Output: 0.3

Input: Value lookup for ΔTm at 10 µM; key = C=CC(=O)Nc1cccc(Nc2nc(Nc3ccc(OCCOC)cc3)ncc2F)c1
Output: 0

Input: Value lookup for ΔTm at 10 µM; key = CCS(=O)(=O)Nc1ccc2c(c1)/C(=C(/Nc1ccc(CN3CCCCC3)cc1)c1ccccc1)C(=O)N2
Output: 1.7

Input: Value lookup for ΔTm at 10 µM; key = CNC(=O)c1cc(COc2nnc(Nc3ccc(Cl)cc3)c3ccoc23)ccn1
Output: -0.3

Input: Value lookup for ΔTm at 10 µM; key = CN(C[C@@H]1COCCO1)S(=O)(=O)Nc1ccc2ccc3ncc(-c4cnn(C)c4)cc3c(=O)c2c1
Output: 0

Input: Value lookup for ΔTm at 10 µM; key = N#CCNC(=O)c1ccc(-c2ccnc(Nc3ccc(N4CCOCC4)cc3)n2)cc1
Output: 0

Input: Value lookup for ΔTm at 10 µM; key = CCOc1cc2ncc(C#N)c(Nc3ccc(F)c(Cl)c3)c2cc1NC(=O)/C=C/CN(C)C [Pelitinib (EKB-569), Pelitinib]
Output: 9.1

Input: Value lookup for ΔTm at 10 µM; key = Cn1c(=O)c(F)c(Nc2ccc(I)cc2F)c2c(=O)n(C[C@@H](O)CO)cnc21
Output: 0.2

Input: Value lookup for ΔTm at 10 µM; key = CC(=O)Nc1cccc(-n2c(=O)n(C3CC3)c(=O)c3c(Nc4ccc(I)cc4F)n(C)c(=O)c(C)c32)c1
Output: 0

Input: Value lookup for ΔTm at 10 µM; key = Cc1c(CN2CCN(C(=O)[C@H](C)O)CC2)sc2c(N3CCOCC3)nc(-c3cnc(N)nc3)nc12 [GDC-0980 (RG7422)]
Output: 0.1

Input: Value lookup for ΔTm at 10 µM; key = O=C(NCCCNc1nc(Nc2cccc(NC(=O)N3CCCC3)c2)ncc1I)c1cccs1
Output: -0.1

Input: Value lookup for ΔTm at 10 µM; key = CS(=O)(=O)N1CCN(Cc2cc3nc(-c4cccc5[nH]ncc45)nc(N4CCOCC4)c3s2)CC1
Output: 0.1

Input: Value lookup for ΔTm at 10 µM; key = CCc1cccc(CC)c1NC(=O)N1Cc2n[nH]c(NC(=O)c3ccc(N4CCN(C)CC4)cc3)c2C1
Output: 0.7

Input: Value lookup for ΔTm at 10 µM; key = Cn1cnc(N)c2ncnc1-2
Output: 0.2
